Origin of values: PubChem BioAssay AID1159580

- ASSAY: chemical genetic growth profiling, strain panel (AID 1159580);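 note: tested at 20 µM; growth read once vehicle control cultures reached saturation at 30 °C; 1 = growth at the plate median or of vehicle wells; lower values mean less growth of the strain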
- CONDITION DETAILS: S. cerevisiae deletion strains, growth OD, locus YLR384C, strain iki3, hits give low values
Out of some 5,500 compounds screened, about 2,000 (36%) were called active. Roughly 18% stayed inconclusive and do not appear here. The list shows a part of the results.
Each entry below lists one item and its recorded normalized growth value.

COMPOUND	normalized growth
S=c1nc[nH]c2nc[nH]c12	1
O=C(O)C1(O)C[C@@H](O)C(O)[C@H](O)C1 (stereo partly drawn)	0.983
C=Cc1c2[nH]c(c1C)C=c1[nH]c(c(C)c1C=C)=CC1N=C(C=c3[nH]c(c(C)c3CCC(=O)O)=C2)C(CCC(=O)O)=C1C (stereo not drawn)	1.04
CN1CCC(=C2c3ccccc3CC(=O)c3sccc32)CC1	0.974
CCOC(=O)CCC(=O)O[C@H]1[C@H](O[C@@H]2[C@@H](C)[C@H](O[C@H]3C[C@@](C)(OC)[C@@H](O)[C@H](C)O3)[C@@H](C)C(=O)O[C@H](CC)[C@@](C)(O)[C@H](O)[C@@H](C)C(=O)[C@H](C)C[C@@]2(C)O)O[C@H](C)C[C@@H]1N(C)C	0.981
CCN(CC)CCCC(C)Nc1c2ccc(Cl)cc2nc2ccc(OC)cc12 (stereo not drawn)	1.04
C[C@H]1CC2C([C@@H](O)C[C@@]3(C)C2CC[C@]3(O)C(=O)CO)[C@@]2(C)C=CC(=O)C=C12 (stereo partly drawn)	0.996
CCN(CC)CCCC(C)Nc1ccnc2cc(Cl)ccc12 (stereo not drawn)	1.03
